Cited source: patent US12410187B2

Molecular target: KRasG12C (Homo sapiens, UniProt P01116, G12C)
Construct: biotin (biotinylated); made in house
Sequence (P01116 1-188 isoform P01116-2 G12C): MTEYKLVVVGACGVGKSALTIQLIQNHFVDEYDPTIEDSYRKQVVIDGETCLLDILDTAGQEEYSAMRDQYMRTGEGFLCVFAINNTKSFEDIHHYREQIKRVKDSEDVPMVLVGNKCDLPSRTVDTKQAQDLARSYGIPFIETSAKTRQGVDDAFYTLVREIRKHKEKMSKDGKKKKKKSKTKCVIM
Test: KRasG12C functional assay (HTRF/FRET nucleotide exchange and Raf RBD binding)
Format: biochemical
Settings: GDP loaded biotinylated KRasG12C, samples incubated for 4 hrs, FRET readout; single experiment or average of two or more; read-out: KRasG12C functional assay IC50
pIC50: −log10 of the molar value.
Measured metric: pIC50

Guide cases for pIC50, answers given:
# Compound, pIC50
records = [
    ("C=CC(=O)N1CCN2Cc3cc(OCc4ccncc4)c(-c4c(O)cccc4Cl)c(F)c3OC[C@H]2C1 (single isomer, unassigned) [Example 104]", 7.57),
    ("C=CC(=O)N1CCN2Cc3c(c(Cl)c(-c4c(O)cccc4F)n(C)c3=O)OC[C@H]2C1 (single isomer, unassigned) [Example 67]", 6.09),
    ("C=CC(=O)N1CCN2Cc3c(OCCN(C)C)cc(-c4c(O)cccc4Cl)c(F)c3OC[C@H]2C1 (single isomer, unassigned) [Example 116]", 7.28),
    ("C=CC(=O)N1CCN2Cc3cc(C#N)c(-c4c(C)cccc4O)c(Cl)c3OC[C@H]2C1 (single isomer, unassigned) [Example 41]", 6.74),
    ("C#Cc1c2c(cc(Cl)c1-c1c(C)cccc1O)CN1CCN(C(=O)C=C)C[C@@H]1CO2 (single isomer, unassigned) [Example 63]", 6.92),
    ("C=CC(=O)N1CCN2C(=O)c3ccc(-c4c(C)ccc5[nH]ncc45)c(Cl)c3N(C)C[C@H]2C1 (single isomer, unassigned) [Example 36]", 4.01),
    ("C=CC(=O)N1CCN2Cc3cc(F)c(-c4c(O)cccc4CC)c(F)c3OC[C@H]2C1 (single isomer, unassigned) [Example 51]", 6.27),
    ("C=CC(=O)N1CCN2Cc3cc(C#N)c(-c4c(O)cccc4Cl)c(Cl)c3OC[C@H]2C1 (single isomer, unassigned) [Example 56]", 5.77),
]

[A] C=CC(=O)N1CCN2C(=O)c3cc(Cl)c(-c4c(O)cccc4F)c(Cl)c3OC[C@H]2C1 (single isomer, unassigned) [Example 21]
[B] C=CC(=O)N1CCN2C(=O)c3cc(Cl)c(-c4c(O)cccc4F)c(Cl)c3OC[C@H]2C1 (single isomer, unassigned) [Example 20]
Return label of the item with the larger pIC50. Candidates: A , B . Respond using the label that marks the chosen record.
B
(B: 7.37, A: 4.89)

[P] C=CC(=O)N1CCN2Cc3cc(C#N)c(-c4c(O)cccc4F)c(Cl)c3OC[C@H]2C1 (single isomer, unassigned) [Example 23]
[Q] C=CC(=O)N1CCN2Cc3cc(F)c(-c4c(O)cccc4Br)c(F)c3OC[C@H]2C1 (single isomer, unassigned) [Example 58]
Of the two listed items, which has the higher pIC50? First: P Second: Q Output the label that corresponds to your choice.
P
